// reported inhibition at 0.1 µM per item
Molecular target: human cloned 5-HT6 receptors (Homo sapiens)
Construct: expressed in transfected cells; host or cells: Hela cells
Sequence (P50406 whole entry): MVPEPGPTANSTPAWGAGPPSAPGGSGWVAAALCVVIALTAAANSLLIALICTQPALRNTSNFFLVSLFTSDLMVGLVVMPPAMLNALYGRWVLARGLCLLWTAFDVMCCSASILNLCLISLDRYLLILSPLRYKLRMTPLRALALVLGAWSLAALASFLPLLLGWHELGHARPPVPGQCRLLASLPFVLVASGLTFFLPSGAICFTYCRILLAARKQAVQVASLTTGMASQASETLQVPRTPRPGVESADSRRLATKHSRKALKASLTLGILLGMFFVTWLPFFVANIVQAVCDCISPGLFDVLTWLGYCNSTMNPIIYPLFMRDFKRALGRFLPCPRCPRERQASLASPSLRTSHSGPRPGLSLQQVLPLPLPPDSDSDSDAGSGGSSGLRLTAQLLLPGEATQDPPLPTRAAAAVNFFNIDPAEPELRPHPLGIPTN
Test: 5-HT6 binding affinity, [3H]-LSD displacement in membranes of Hela cells
Details: test compound dose 100 nM; [3H]-LSD 3.0 nM
State just the number; it will be interpreted in %.

Reading of inhibition at 0.1 µM for COc1ccc(S(=O)(=O)n2cc(C(=NNC(=N)N)C3CC3)c3ccccc32)cc1OC with human cloned 5-HT6 receptors (Homo sapiens): 61.5

---

// reported inhibition at 0.1 µM per item
Target: human cloned 5-HT6 receptors (Homo sapiens)
Construct: expressed in transfected cells; host or cells: Hela cells
Assay: 5-HT6 binding affinity, [3H]-LSD displacement in membranes of Hela cells
Settings: test compound dose 100 nM; [3H]-LSD 3.0 nM
State just the number; it will be interpreted in %.

inhibition at 0.1 µM for CCCCC(=NNC(=N)N)c1cn(S(=O)(=O)c2ccccc2)c2ccc(Cl)cc12 is 57.5

inhibition at 0.1 µM for CC(=NNC(=N)N)c1cn(S(=O)(=O)c2sc3ccc(Cl)cc3c2C)c2ccccc12 is 39.1

inhibition at 0.1 µM for CC(=NNC(=N)N)c1cn(S(=O)(=O)c2ccccc2[N+](=O)[O-])c2ccccc12 is 70.1

inhibition at 0.1 µM for COc1ccc(S(=O)(=O)n2cc(C(=NNC(=N)N)C3CC3)c3ccc(F)cc32)cc1OC is 78.2

inhibition at 0.1 µM for CCCCCNC(=N)NN=C(C)c1cn(S(=O)(=O)c2ccccc2)c2ccccc12 is 34

Others:
inhibition at 0.1 µM for CCCCS(=O)(=O)n1cc(C(C)=NNC(=N)N)c2ccc(F)cc21 is 69.4

inhibition at 0.1 µM for CC(=NNC(=N)N)c1cn(C(=O)Oc2ccccc2)c2ccccc12 is 23.9

inhibition at 0.1 µM for CC(=NNC(=N)N)c1cn(S(=O)(=O)c2cc([N+](=O)[O-])ccc2C)c2ccccc12 is 41

inhibition at 0.1 µM for CC(=NNC(=N)N)c1cn(S(=O)(=O)c2cccc(Br)c2)c2ccccc12 is 76.2

inhibition at 0.1 µM for COc1ccc(S(=O)(=O)n2cc(C(=NNC(=N)N)C3CC3)c3cc(Cl)ccc32)cc1OC is 71.9

inhibition at 0.1 µM for CC(=NNC(=N)N)c1cn(S(=O)(=O)c2ccc(OC(F)(F)F)cc2)c2ccccc12 is 26.2

inhibition at 0.1 µM for CC(=NNC(=N)N)c1cn(S(=O)(=O)c2cn(C)cn2)c2ccccc12 is 81.1

inhibition at 0.1 µM for CC(=NNC(=N)N)c1cn(S(C)(=O)=O)c2ccccc12 is 68.2

inhibition at 0.1 µM for CC(=NNC(=N)N)c1cn(S(=O)(=O)c2ccccc2Br)c2ccccc12 is 83.3

inhibition at 0.1 µM for CC(=NNC(=N)N)c1cn(S(=O)(=O)c2ccc(Br)s2)c2ccccc12 is 76.4
